Measured % inhibition, FRET short substrate assay (negative = activation), listed per entry.
- target_or_test_system: murine BACE1 ECD; note: test concentration or dose not given here
- Sequence (single chain, as listed by the source limits assumed): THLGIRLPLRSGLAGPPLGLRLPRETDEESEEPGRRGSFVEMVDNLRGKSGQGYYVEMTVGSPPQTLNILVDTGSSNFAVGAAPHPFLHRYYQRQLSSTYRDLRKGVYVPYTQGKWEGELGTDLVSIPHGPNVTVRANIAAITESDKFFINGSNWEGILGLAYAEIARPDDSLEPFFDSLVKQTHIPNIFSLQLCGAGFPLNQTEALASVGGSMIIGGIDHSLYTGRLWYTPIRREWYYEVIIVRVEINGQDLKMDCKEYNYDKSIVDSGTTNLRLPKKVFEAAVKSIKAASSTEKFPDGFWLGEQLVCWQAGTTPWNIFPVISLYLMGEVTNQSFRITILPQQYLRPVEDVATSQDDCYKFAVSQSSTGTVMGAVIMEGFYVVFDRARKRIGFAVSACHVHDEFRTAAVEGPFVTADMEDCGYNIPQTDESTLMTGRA
- test_details: cell-based or functional assay
Report only the number, with the unit % understood.

Completed entries (count: 4):
- binder: "5536 (antibody, V domains shown) VH: QVQLVQSGAEVKKPGSSVKVSCKASGGTFSSYAISWVRQAPGQGLEWMGSIIPIFGTANYAQKFQGRVTITADESTSTAYMELSSLRSEDTAVYYCARSGGTKYGMLDVWGQGTMVTVSS VL: EIVMTQSPATLSVSPGERATLSCRASQSVGSNLAWYQQKPGQAPRLLIYGASTRATGIPARFSGSGSGTEFTLTISSLQSEDFAVYYCQQSYLWPPRTFGGGTKVEIK"
  units: "%"
  value_measured: 30
- binder: "5880 (antibody, V domains shown) VH: EVQLLESGGGLVQPGGSLRLSCAASGFTFGSYAMTWVRQAPGKGLEWVSAISGSGISTPYADSVKGRFTISRDNSKNTLYLQMNSLRAEDTAVYYCAKGAGHGSYVKGWFDPWGQGTLVTVSS VL: EIVLTQSPATLSLSPGERATLSCRASQSVSSYLAWYQQKPGQAPRLLIYDASNRATGIPARFSGSGSGTDFTLTISSLEPEDFAVYYCQQSVNFPFTFGGGTKVEIK"
  units: "%"
  value_measured: 97
- binder: "5884 (antibody, V domains shown) VH: QVQLVQSGAEVKKPGSSVKVSCKASGGTFSGYGISWVRQAPGQGLEWMGNIIPGFGTANYAQKFQGRVTITADESTSTAYMELSSLRSEDTAVYYCARSGGTKYGMLDVWGQGTMVTVSS VL: EIVMTQSPATLSVSPGERATLSCRASQSVSSNLAWYQQKPGQAPRLLIYGASTRATGIPARFSGSGSGTEFTLTISSLQSEDFAVYYCQQLILWPPRTFGGGTKVEIK"
  units: "%"
  value_measured: -243
- binder: "5894 (antibody, V domains shown) VH: QVQLVQSGAEVKKPGSSVKVSCKASGGTFSGYAISWVRQAPGQGLEWMGNIIPGFGTANYAQKFQGRVTITADESTSTAYMELSSLRSEDTAVYYCARSGGTKYGMLDVWGQGTMVTVSS VL: EIVMTQSPATLSVSPGERATLSCRASQSVGSNLAWYQQKPGQAPRLLIYGASTRATGIPARFSGSGSGTEFTLTISSLQSEDFAVYYCQQLYTWPPRTFGGGTKVEIK"
  units: "%"
  value_measured: 69

Now examine the next entry.
Recorded % inhibition, FRET short substrate assay (negative = activation) for 5887 (antibody, V domains shown) VH: QVQLVQSGAEVKKPGSSVKVSCKASGGTFRGYAISWVRQAPGQGLEWMGNIIPGFGTANYAQKFQGRVTITADESTSTAYMELSSLRSEDTAVYYCARSGGTKYGMLDVWGQGTMVTVSS VL: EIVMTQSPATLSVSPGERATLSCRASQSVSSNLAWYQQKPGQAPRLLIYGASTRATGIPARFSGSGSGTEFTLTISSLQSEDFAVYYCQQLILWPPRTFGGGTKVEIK , please?
-230
